- Assayed System: Fuc(a1-4)GlcNAc
- Measurement Notes: glycan array binding signal (z-score within array); higher = stronger binding
- Reported Conditions: glycan notation: IUPAC condensed, linker removed
Many of the other results were omitted from the sample, so the strongest signals are more common in it than they were.
Consider the following binders and their measured glycan array binding signal (z-score) readings.
Readout Name: glycan array binding signal (z-score)

INSERT INTO assay_data (binder, readout_name, test_value) VALUES
  ('UDA (Urtica dioica), P11218 (protein) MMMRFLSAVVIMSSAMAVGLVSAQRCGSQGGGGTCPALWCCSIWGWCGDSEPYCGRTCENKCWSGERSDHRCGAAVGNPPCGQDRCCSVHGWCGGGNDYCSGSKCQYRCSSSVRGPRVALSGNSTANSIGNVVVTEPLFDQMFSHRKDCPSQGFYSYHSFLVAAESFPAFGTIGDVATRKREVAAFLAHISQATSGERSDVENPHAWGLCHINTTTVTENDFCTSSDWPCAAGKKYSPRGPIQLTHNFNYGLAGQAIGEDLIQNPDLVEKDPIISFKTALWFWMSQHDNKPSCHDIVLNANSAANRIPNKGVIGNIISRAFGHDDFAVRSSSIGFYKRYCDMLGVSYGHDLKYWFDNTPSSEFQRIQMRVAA', 'glycan array binding signal (z-score)', -0.178),
  ('SP16663B-bot-321-25-321 (Bacteroides ovatus) (protein) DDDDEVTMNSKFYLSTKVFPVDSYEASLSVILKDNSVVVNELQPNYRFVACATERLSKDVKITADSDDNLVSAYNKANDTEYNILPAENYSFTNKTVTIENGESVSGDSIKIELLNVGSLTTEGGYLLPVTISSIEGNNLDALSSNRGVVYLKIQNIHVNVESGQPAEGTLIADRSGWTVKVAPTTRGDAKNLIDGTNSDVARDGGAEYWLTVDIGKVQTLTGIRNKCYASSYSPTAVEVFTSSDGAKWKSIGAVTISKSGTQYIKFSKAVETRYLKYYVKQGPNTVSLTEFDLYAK', 'glycan array binding signal (z-score)', 21.5);
